# assay summary: folding stability dG unfold from chymotrypsin proteolysis; higher = more stable
Kindly return rule met if reported folding stability dG unfold is no lower than 2 kcal/mol; return rule not met if it is lower.

Record excerpt, results attached:
> print(dat)
                         construct.sequence       cat
1  SELEDMTPEQLRERIRELLEELREERPGEEVEITIEELLERLPGMSREQLAEILGLTEEELENRTITIRASA [r9_525_TrROS_Hall]  rule met
2  SAGGSAGGSAGKVIIIKVPKKDMTPEEVEKLAKELKEKFPDAKITVIEVKKDGYIIIKIDSAGGSAGGSAGG [r11_365_TrROS_Hall]  rule met

Dear colleague, could you confirm whether SAGGSAGGSAKPNNAELVKVTYDPETGDFYAFYKIKNTDTVYVLRFNKDGTVEVKEYKFSEASAGGSAGGSA [r18_521_TrMRF] has folding stability dG unfold at or above 2 kcal/mol?
rule met

Also, SAPIRPGQDLKIEPEIRRYPNGSMSYTYRLEFPNGPTVHVRHTMQRDPEHGKPRHKWDIHLSPKALEAFSAG [r14_842_TrROS] please.
rule not met

Also, SMGMTPEEYILELVREALAADPDAAVTIDHDDIVRNTPNPISKEEIEKLAKEKTGVEDLTVTETPPDVPPSA [r9_738_JUSTAS] please.
rule not met

Also, SAGKEVIVITVEELEKLLKALKPGEKVKIVVINKDGKKVTFTAEVKDGKVEIKEAEKDIKPGDKIFIEKSAG [r5_85_TrROS_Hall] please.
rule met

Also, SAGGERLTLEELEELLKNLPPGVEEVTITLKLEVEVRTEVRLNEDGSLETRTETRVTTELTLTLPKESAGGS [r16_708_TrROS_Hall] please.
rule met

Also, SAGGSAGGMEIRIEKDENGFLRLKVINKKTKKETEIEIPVEDEDALKKLLDAGVERVEIEPLPPSAGGSAGG [r6_639_TrROS_Hall] please.
rule not met

Also, MKLLKITITITVTRQFPTVPVTSTTTITLEYTTPPDDPAAIEEAKKTAEEIAKKLGATDVTVTTEEVVLESS [r1_346_JUSTAS] please.
rule met

Also, SAGGSAGGSAGYLELKISFFDPDGQILASITIWIEIVIPPPPKMEYERDPEDGNNKWEHDSAGGSAGGSAGG [r17_348_TrROS] please.
rule met

Also, SAGGSAGGSAMPLGVTTSTSTSLLPSNSRLVTETITTPGTTSTTTTLLTPPPGEVLETTTTSSAGGSAGGSA [r18_459_JUSTAS] please.
rule not met

Also, SAGGMKIIPITPEMIEEAKKLGLTPEDEAFEFEVTLPNGEVLRGTLIIPPDNPDIPVEAEPYLNLDKSAGGS [r16_497_TrMRF] please.
rule not met

Also, SAGGSAGGMKTVTTPVYAVMPEEEAEALAKELEEKYPNVEIEVEREELPDGRVRVTITVTKPLGSAGGSAGG [r6_105_JUSTAS] please.
rule not met

Also, SAGGAIGPEEAERLAQEIADRLAAEFREAEPDVEVEVEAEVFPPEGVIRVRPRLPDGRLLAEVTFPVGSAGG [r13_247_TrMRF] please.
rule not met
